The reported numbers originate from PubChem BioAssay (NCI).

Tested on: U251 CNS
Assay: NCI tumour cell line growth inhibition, 48 h
Answer each item with its documented TGI.

Illustrative cases are given below, each with its answer.
- compound: "Cc1cc(NS(=O)(=O)c2ccc(NC(=O)c3ccc(Cl)c4c(Nc5ccc(S(=O)(=O)Nc6cc(C)on6)cc5)c5ccccc5nc34)cc2)no1"
  TGI: "32.8 µM"
- compound: "CC(C)(C)C1=CC(=N/N=c2\\scc(-c3ccccc3)n2Cc2ccccc2)C=C(C(C)(C)C)C1=O"
  TGI: "> 100 µM"
- compound: "O=C1NC(c2ccccc2)(c2ccccc2)C(=O)N1CCCCCCN1C(=O)NC(c2ccccc2)(c2ccccc2)C1=O"
  TGI: "> 100 µM"
- compound: "COC(=O)C1(Cc2ccc3c(c2)CCC3)Cc2ccc3c(c2C1=O)CCC3 (stereo not drawn)"
  TGI: "> 69.6 µM"
- compound: "C=CC[P@]1(=O)O[C@H](c2ccccc2)C(C)N1C(C)C (stereo partly drawn)"
  TGI: "> 100 µM"

Give TGI for each listed item.
1. COc1ccc(C2CC(c3sc(Nc4ccc(C)cc4)nc3C)=NN2)cc1 (stereo not drawn)
2. O=C(O)CCC(O)=C1S(=O)(=O)OCCOS1(=O)=O

1. 28.4 µM
2. > 100 µM

Give TGI for each listed item.
1. Nc1nnc(N)n1N
2. O=NNc1ccc(-c2ccccc2)cn1
3. CCOP(=O)(OCC)C(c1ccc(F)cc1)N(C(=O)NC(F)(F)F)c1ccc(F)cc1 (stereo not drawn)

1: > 100 µM; 2: > 62.5 µM; 3: > 100 µM
